Listed here are compounds together with their documented COX2 2 minutes pge2 area (counts) Avg. LLE.
Target: human recombinant COX2 (hCOX2) (UniProt P35354)
Sequence (P35354 1-604): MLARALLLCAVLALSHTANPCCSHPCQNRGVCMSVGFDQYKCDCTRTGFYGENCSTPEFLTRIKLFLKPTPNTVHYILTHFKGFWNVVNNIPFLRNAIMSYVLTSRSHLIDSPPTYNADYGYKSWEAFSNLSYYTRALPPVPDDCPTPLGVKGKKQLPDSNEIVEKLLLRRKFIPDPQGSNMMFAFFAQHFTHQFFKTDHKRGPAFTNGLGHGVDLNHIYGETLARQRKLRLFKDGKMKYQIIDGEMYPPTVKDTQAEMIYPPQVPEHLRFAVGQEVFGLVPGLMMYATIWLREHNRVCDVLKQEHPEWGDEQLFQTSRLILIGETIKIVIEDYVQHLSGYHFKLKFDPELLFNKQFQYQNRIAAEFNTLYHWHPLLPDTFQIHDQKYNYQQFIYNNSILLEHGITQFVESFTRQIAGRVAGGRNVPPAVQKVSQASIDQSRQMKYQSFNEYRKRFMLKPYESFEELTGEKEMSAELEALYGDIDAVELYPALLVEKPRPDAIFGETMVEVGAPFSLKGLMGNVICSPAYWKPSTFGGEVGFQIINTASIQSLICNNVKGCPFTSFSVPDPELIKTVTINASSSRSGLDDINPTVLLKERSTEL
Test: LCMS-based COX2 enzymatic inhibition assay (PGE2 quantification)
Type: biochemical
Set-up: COX2 2 minutes pge2/pge2d4 area ratio Avg; other: 2 minutes; readout pge2/pge2d4 area ratio; average; COX2 2 minutes pge2/pge2d4 area ratio Avg; LLE; average LLE; COX2 2 minutes pge2 area (counts) Avg; readout pge2 area (counts); other: 2 min; "ovine COX2 (oCOX2), human recombinant COX2 (hCOX2)"
Conditions: 2 minutes; readout pge2 area (counts); average LLE
Would you mind answering with just the numeric figure?

INSERT INTO results (compound, target_of_assay, recorded_measurement) VALUES
  ('CS(=O)(=O)c1ccc(-c2cncc(NC[C@@H]3CCCS3)n2)cc1 (single isomer, unassigned) [Compound 167]', 'human recombinant COX2 (hCOX2) (UniProt P35354)', 4.782),
  ('COc1ncc(NCc2cccs2)nc1-c1ccc(S(C)(=O)=O)nc1 [Compound 60]', 'human recombinant COX2 (hCOX2) (UniProt P35354)', 5.891),
  ('CS(=O)(=O)c1ccc(-c2nc(NCc3cccs3)cc3ccoc23)cc1 [Compound 2]', 'human recombinant COX2 (hCOX2) (UniProt P35354)', 3.975),
  ('CS(=O)(=O)c1ccc(-c2cncc(CCc3cccs3)n2)cc1 [Compound 225]', 'human recombinant COX2 (hCOX2) (UniProt P35354)', 3.249);

// below: COX2 2 minutes pge2 area (counts) Avg. LLE requested for another compound
Param item = COCCOc1ncc(NCc2cccs2)nc1-c1ccc(S(C)(=O)=O)cc1 [Compound 133] ; retrieve measured COX2 2 minutes pge2 area (counts) Avg. LLE.
4.582
